target-or-test-system: human CSNK1A1 (Homo sapiens (Human), UniProt P48729)
Sequence (P48729 whole entry): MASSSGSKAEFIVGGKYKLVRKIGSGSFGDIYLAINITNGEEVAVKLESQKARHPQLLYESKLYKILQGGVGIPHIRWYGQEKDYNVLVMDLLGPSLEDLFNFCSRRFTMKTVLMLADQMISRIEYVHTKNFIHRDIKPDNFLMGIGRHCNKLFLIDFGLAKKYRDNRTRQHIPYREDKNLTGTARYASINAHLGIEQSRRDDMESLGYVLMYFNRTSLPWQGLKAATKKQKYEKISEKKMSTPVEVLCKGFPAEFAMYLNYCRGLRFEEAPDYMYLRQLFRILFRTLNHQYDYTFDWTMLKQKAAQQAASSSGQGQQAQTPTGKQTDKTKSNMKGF
method: CSNK1A1 Assay 2 (ADP-Glo, 1 μM ATP)
Format: biochemical
cond: substrate biotin-Ahx-KRRRAL-pS-VASLPGL, read-out: CSNK1A1 Assay 2 IC50 [mol/l] (median)
Experimental: CSNK1A1-inhibitory activity of compounds of the present invention in presence of 1 μM adenosine-tri-phosphate (ATP) was quantified employing the CSNK1A1 assay as described in the following paragraphs. In essence, the enzyme activity is measured by quantification of the adenosine-di-phosphate (ADP), which is generated as a co-product of the enzyme reaction, via the “ADP-Glo™ Kinase Assay” kit from the company Promega. […]
pIC50: −log10 of the molar value.
Assign rule met to entries whose pIC50 meets or exceeds 8; assign rule not met to the rest.

Examples from the recorded data:
compound="CC1Cc2[nH]c(-c3ccnc(NC(=O)Cc4ccncc4)c3)c(Nc3ccccc3)c2C(=O)N1C (single isomer, unassigned; (+)) [Example 98]" class_label="rule met"
compound=O=C(Cc1ccc(F)cc1)Nc1cc(-c2[nH]c3c(c2Nc2cccc(F)c2Cl)C(=O)NC2(CCC2)C3)ccn1 class_label="rule met"
compound="CCN1CCc2[nH]c(-c3ccnc(NC(=O)C(C)c4ccc(F)cc4)c3)c(Nc3ccccc3)c2C1=O (single isomer, unassigned) [Example 25]" class_label="rule not met"
compound="CC(C(=O)Nc1cc(-c2[nH]c3c(c2Nc2ccccc2)C(=O)N(C)CC3)ccn1)c1ccc(Cl)cc1 (single isomer, unassigned; (+)) [Example 81]" class_label="rule met"
compound="CC(C(=O)Nc1cc(-c2[nH]c3c(c2Nc2ccccc2F)C(=O)N(C)CC3)ccn1)c1ccc(F)cc1 (single isomer, unassigned; (-)) [Example 41]" class_label="rule not met"
compound="CC(C(=O)Nc1cc(-c2[nH]c3c(c2Nc2ccccc2Cl)C(=O)NCC3)ccn1)c1ccc(F)cc1 (stereo not drawn) [Example 14]" class_label="rule met"

Task: Confirm if pIC50 reported for the compound CC1(C)Cc2[nH]c(-c3ccnc(NC(=O)Cc4ccc(F)cc4)c3)c(Nc3cccc(F)c3)c2C(=O)N1 is 8 or above.
Result: rule met

Task: // same read-out, input: CC1Cc2[nH]c(-c3ccnc(NC(=O)C(CC(F)F)c4ccc(F)cc4)c3)c(Nc3ccccc3F)c2C(=O)N1C (single isomer, unassigned; (-)) [Example 106]
Result: rule not met

Task: // same read-out, input: CN(C)CCNC(=O)c1ccc(CC(=O)Nc2cc(-c3[nH]c4c(c3Nc3ccccc3)C(=O)N(C)CC4)ccn2)cc1
Result: rule met

----------
Kindly supply the reported pIC50 values for the records listed here.
target-or-test-system: human CSNK1A1 (Homo sapiens (Human))
method: CSNK1A1 Assay 2 (ADP-Glo, 1 μM ATP)
Type: biochemical
cond: substrate biotin-Ahx-KRRRAL-pS-VASLPGL, read-out: CSNK1A1 Assay 2 IC50 [mol/l] (median)
One number for each entry, as −log10 of the molar value.

Some solved entries appear below for comparison.
compound="CC1Cc2[nH]c(-c3ccnc(NC(=O)C(CC(F)F)c4ccc(F)cc4)c3)c(Nc3ccccc3F)c2C(=O)N1C (single isomer, unassigned; (+)) [Example 103]" target_or_test_system="human CSNK1A1 (Homo sapiens (Human))" experimental_value=7.89
compound=CCN1CCc2[nH]c(-c3ccnc(NC(=O)Cc4ccc(F)cc4)c3)c(Nc3ccccc3)c2C1=O target_or_test_system="human CSNK1A1 (Homo sapiens (Human))" experimental_value=7.94
compound="CC(C(=O)Nc1cc(-c2[nH]c3c(c2Nc2ccccc2)C(=O)N(C)CC3)ccn1)c1ccc(F)cc1 (stereo not shown)" target_or_test_system="human CSNK1A1 (Homo sapiens (Human))" experimental_value=8.26
compound=CN1CCc2[nH]c(-c3ccnc(NC(=O)Cc4ccc(F)cc4)c3)c(Nc3cc(F)ccc3F)c2C1=O target_or_test_system="human CSNK1A1 (Homo sapiens (Human))" experimental_value=7.75
compound="CC1(C)Cc2[nH]c(-c3ccnc(NC(=O)C(CC(F)F)c4ccc(F)cc4)c3)c(Nc3ccccc3)c2C(=O)N1 (single isomer, unassigned; (+)) [Example 49]" target_or_test_system="human CSNK1A1 (Homo sapiens (Human))" experimental_value=8.34

Quick one: give me pIC50 for each item below, same order please.
1. CN1CCc2[nH]c(-c3ccnc(NC(=O)Cc4ccc(C(=O)N5CCNCC5)cc4)c3)c(Nc3ccccc3)c2C1=O
2. O=C1NC2(CC2)Cc2[nH]c(-c3ccnc(NC(=O)C(CC(F)F)c4ccc(F)cc4)c3)c(Nc3ccccc3)c21 (single isomer, unassigned; enantiomer 1) [Example 148]
3. O=C(Cc1ccc(F)cc1)Nc1cc(-c2[nH]c3c(c2Nc2ccccc2)C(=O)N(C2CC2)CC3)ccn1
4. COC(=O)c1ccc(CC(=O)Nc2cc(-c3[nH]c4c(c3Nc3ccccc3)C(=O)N(C)CC4)ccn2)cc1
5. CC(C(=O)Nc1cc(-c2[nH]c3c(c2Nc2ccccc2)C(=O)N(C)C2(CCC2)C3)ccn1)c1ccc(F)cc1 (racemic) [Example 157]
6. CN1CCc2[nH]c(-c3ccnc(NC(=O)C(CO)c4ccc(F)cc4)c3)c(Nc3ccccc3)c2C1=O (single isomer, unassigned) [Example 18]
7. CN1C(=O)c2c([nH]c(-c3ccnc(NC(=O)C(CC(F)F)c4ccc(F)cc4)c3)c2Nc2ccccc2F)CC1(C)C (single isomer, unassigned) [Example 46]
8. CC1(C)Cc2[nH]c(-c3ccnc(NC(=O)Cc4ccncc4)c3)c(Nc3ccccc3)c2C(=O)N1

Result:
1. 8.71
2. 8.05
3. 8.60
4. 8.84
5. 8.06
6. 7.69
7. 8.18
8. 8.31

Measured values drawn from patent US12227501B2 for this set.
